Measured values drawn from patent US20170050939A1 for this set.

- systemTested: GRK6, recombinant full-length GST-tagged human protein (Homo sapiens, UniProt P43250)
- Construct: GRK6, recombinant full-length GST-tagged human protein; GST
- Sequence (P43250 whole entry): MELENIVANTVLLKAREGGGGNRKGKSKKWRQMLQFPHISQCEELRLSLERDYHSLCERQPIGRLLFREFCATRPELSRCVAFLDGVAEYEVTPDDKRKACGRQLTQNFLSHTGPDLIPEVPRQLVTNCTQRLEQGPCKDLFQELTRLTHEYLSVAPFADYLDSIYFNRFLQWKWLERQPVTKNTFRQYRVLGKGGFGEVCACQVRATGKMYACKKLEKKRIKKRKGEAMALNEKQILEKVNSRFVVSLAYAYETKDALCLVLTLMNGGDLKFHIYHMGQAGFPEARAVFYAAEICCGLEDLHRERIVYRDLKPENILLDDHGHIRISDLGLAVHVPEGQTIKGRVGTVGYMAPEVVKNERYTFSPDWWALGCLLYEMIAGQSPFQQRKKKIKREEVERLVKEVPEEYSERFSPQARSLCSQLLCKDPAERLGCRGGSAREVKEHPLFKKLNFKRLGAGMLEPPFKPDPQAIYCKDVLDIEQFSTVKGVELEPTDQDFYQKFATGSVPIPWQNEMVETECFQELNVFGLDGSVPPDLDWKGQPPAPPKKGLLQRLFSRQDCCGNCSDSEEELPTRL
- assayExplanation: GRK6 IC50 determination (8-point concentration-response)
- Format: biochemical
pIC50: −log10 of the molar value.
valueKind: pIC50

• CS(=O)(=O)Nc1ccc(-c2cc(-c3nnc(SCC(=O)O)[nH]3)cc([N+](=O)[O-])c2)cc1 [Compound 47] = 6.33
• O=C(O)CSc1nnc(-c2cc(C(=O)Nc3ccccc3)cc([N+](=O)[O-])c2)[nH]1 [Compound 82] = 6.12
• O=C(O)CSc1nnc(-c2cc(-c3ccc4[nH]ncc4c3)cc([N+](=O)[O-])c2)[nH]1 [Compound 15] = 6.85
• O=C(O)CSc1nnc(-c2cccc3cc[nH]c23)[nH]1 [Compound 153] = 4.87
• Cc1nn(C)cc1-c1cc(-c2nnc(SCC(=O)O)[nH]2)cc([N+](=O)[O-])c1 [Compound 79] = 6.12
• CC(C)Oc1ccc(-c2nnc(SCC(=O)O)[nH]2)cc1[N+](=O)[O-] [Compound 104] = 5.48
• CNC(=O)c1ccc(-c2cc(-c3nnc(SCC(=O)O)[nH]3)cc([N+](=O)[O-])c2)cc1 [Compound 45] = 6.36
• COc1ccc(-c2cc(-c3ccc4ccccc4c3)cc(-c3nnc(SCC(=O)O)[nH]3)c2)cn1 [Compound 66] = 5.97
• Cn1ccc2cc(-c3cc(-c4n[nH]c(SCC(=O)O)n4)cc([N+](=O)[O-])c3)cc(Cl)c21 [Compound 229] = 6.94
• Cc1cc(-c2cc(-c3nnc(SCC(=O)O)[nH]3)cc([N+](=O)[O-])c2)cc2ccn(C)c12 [Compound 231] = 6.82
• Cc1onc(-c2ccccc2)c1-c1cc(-c2nnc(SCC(=O)O)[nH]2)cc([N+](=O)[O-])c1 [Compound 84] = 6.06
